Where these numbers come from: paper PMC10967822

- Tested on: A. baumannii ATCC 19606
- Protocol summary: MIC, broth microdilution (CO-ADD), A. baumannii
- Format: cell-based, Acinetobacter baumannii
- Assay setup: Acinetobacter baumannii, ATCC19606, top dose 32 µg/mL
Metric: MIC

Below, 4 compounds whose answers are already recorded.
[
  {
    "Compound": "Cc1ccc2[nH]cc(C(=O)NCCCNCCCCCCNCCCNC(=O)c3c[nH]c4ccc(C)cc34)c2c1 [Compound 15b]",
    "Data value": "> 41 µM"
  },
  {
    "Compound": "COc1ccc2[nH]cc(C(=O)NCCCNCCCCCCNCCCNC(=O)c3c[nH]c4ccc(OC)cc34)c2c1 [Compound 14b]",
    "Data value": "> 40 µM"
  },
  {
    "Compound": "Cc1cccc2c(C(=O)NCCCNCCCCCCCNCCCNC(=O)c3c[nH]c4c(C)cccc34)c[nH]c12 [Compound 18c]",
    "Data value": "> 41 µM"
  },
  {
    "Compound": "Cc1ccc2[nH]cc(C(=O)NCCCNCCCCNCCCNC(=O)c3c[nH]c4ccc(C)cc34)c2c1 [Compound 15a]",
    "Data value": "> 43 µM"
  }
]

In: Form field: reported MIC of O=C(NCCCNCCCCCCCCNCCCNC(=O)c1c[nH]c2ccccc12)c1c[nH]c2ccccc12.O=C(O)C(F)(F)F.O=C(O)C(F)(F)F [Compound 12d]
Out: > 41 µM

In: Form field: reported MIC of O=C(NCCCNCCCCCCCNCCCNC(=O)c1c[nH]c2ccc(Br)cc12)c1c[nH]c2ccc(Br)cc12 [Compound 13c]
Out: > 35 µM

In: Form field: reported MIC of Cc1cccc2c(C(=O)NCCCNCCCCCCCCCCNCCCNC(=O)c3c[nH]c4c(C)cccc34)c[nH]c12 [Compound 18e]
Out: > 39 µM

---

Observed MIC values for C. neoformans ATCC 208821 are listed in what follows.

Below, 5 compounds whose answers are already recorded.
[
  {
    "Compound": "O=C(NCCCNCCCCCCCCCCNCCCNC(=O)c1c[nH]c2ccc(Br)cc12)c1c[nH]c2ccc(Br)cc12 [Compound 13e]",
    "Data value": "≤ 0.26 µM"
  },
  {
    "Compound": "O=C(NCCCNCCCCCCCCNCCCNC(=O)c1c[nH]c2ccc(Br)cc12)c1c[nH]c2ccc(Br)cc12 [Compound 13d]",
    "Data value": "≤ 0.27 µM"
  },
  {
    "Compound": "Cc1cccc2c(C(=O)NCCCNCCCCCCCCNCCCNC(=O)c3c[nH]c4c(C)cccc34)c[nH]c12 [Compound 18d]",
    "Data value": "≤ 0.31 µM"
  },
  {
    "Compound": "Cc1cccc2c(C(=O)NCCCNCCCCCCCCCCNCCCNC(=O)c3c[nH]c4c(C)cccc34)c[nH]c12 [Compound 18e]",
    "Data value": "≤ 0.3 µM"
  },
  {
    "Compound": "O=C(NCCCNCCCCCCCNCCCNC(=O)c1c[nH]c2ccc(Br)cc12)c1c[nH]c2ccc(Br)cc12 [Compound 13c]",
    "Data value": "≤ 0.27 µM"
  }
]

In: Form field: reported MIC of O=C(NCCCNCCCCCCCCCCNCCCNC(=O)c1c[nH]c2c(F)cccc12)c1c[nH]c2c(F)cccc12 [Compound 16e]
Out: ≤ 0.3 µM

In: Form field: reported MIC of Cc1ccc2[nH]cc(C(=O)NCCCNCCCCCCCCCCNCCCNC(=O)c3c[nH]c4ccc(C)cc34)c2c1 [Compound 15e]
Out: ≤ 0.3 µM

In: Form field: reported MIC of O=C(NCCCNCCCCCCCNCCCNC(=O)c1c[nH]c2ccccc12)c1c[nH]c2ccccc12.O=C(O)C(F)(F)F.O=C(O)C(F)(F)F [Compound 12c]
Out: ≤ 0.33 µM

In: Form field: reported MIC of COc1cccc2c(C(=O)NCCCNCCCCCCCCCCCCNCCCNC(=O)c3c[nH]c4c(OC)cccc34)c[nH]c12.O=C(O)C(F)(F)F.O=C(O)C(F)(F)F [Compound 17f]
Out: ≤ 0.28 µM

In: Form field: reported MIC of COc1ccc2[nH]cc(C(=O)NCCCNCCCCCCCCCCCCNCCCNC(=O)c3c[nH]c4ccc(OC)cc34)c2c1.O=C(O)C(F)(F)F.O=C(O)C(F)(F)F [Compound 14f]
Out: ≤ 0.28 µM

In: Form field: reported MIC of COc1ccc2[nH]cc(C(=O)NCCCNCCCCCCCCNCCCNC(=O)c3c[nH]c4ccc(OC)cc34)c2c1 [Compound 14d]
Out: ≤ 0.3 µM

In: Form field: reported MIC of Cc1ccc2[nH]cc(C(=O)NCCCNCCCCCCNCCCNC(=O)c3c[nH]c4ccc(C)cc34)c2c1 [Compound 15b]
Out: ≤ 0.32 µM

In: Form field: reported MIC of O=C(NCCCNCCCCCCNCCCNC(=O)c1c[nH]c2ccc(Br)cc12)c1c[nH]c2ccc(Br)cc12 [Compound 13b]
Out: ≤ 0.28 µM

In: Form field: reported MIC of O=C(NCCCNCCCCCCCCNCCCNC(=O)c1c[nH]c2c(F)cccc12)c1c[nH]c2c(F)cccc12 [Compound 16d]
Out: ≤ 0.31 µM
